Recorded mortality at 1.26 µg/cm2, 1.26 µg/cm2, one value per entry.
- Tested on: cat flea (Ctenocephalides felis)
- ASSAY_METHOD_TEXT: whole plant or invertebrate
- Format: in vivo
- MEASUREMENT_PARAMETERS: Ctenocephalides felis, 8 h, read-out: C. felis Mortality (%) 8 h, 8 h; Laboratory 1 A data
PARAMETER_MEASURED: mortality at 1.26 µg/cm2, 1.26 µg/cm2 (%)

In [3]: df
Out[3]:
                                    compound             target_or_test_system                     parameter_measured  unit_tag  test_value
 0  CC/C(=N\OCc1ccccc1Cl)c1cc(Cl)ccc1NS(=O)(=O)C(F)(F)F  cat flea (Ctenocephalides felis)  mortality at 1.26 µg/cm2, 1.26 µg/cm2         %          56
 1  C/C(=N\OCc1cc(C(F)(F)F)ccc1C(F)(F)F)c1cc(Cl)ccc1NS(=O)(=O)C(F)(F)F  cat flea (Ctenocephalides felis)  mortality at 1.26 µg/cm2, 1.26 µg/cm2         %           2
 2  O=S(=O)(Nc1ccc(Cl)cc1/C=N/OCc1ccc(C(F)(F)F)cc1C(F)(F)F)C(F)(F)F  cat flea (Ctenocephalides felis)  mortality at 1.26 µg/cm2, 1.26 µg/cm2         %          10
 3  CC/C(=N\OCc1c(F)c(F)c(F)c(F)c1F)c1cc(Cl)ccc1NS(=O)(=O)C(F)(F)F  cat flea (Ctenocephalides felis)  mortality at 1.26 µg/cm2, 1.26 µg/cm2         %           3
 4  CC/C(=N\OCc1ccc(Cl)cc1Cl)c1cc(Cl)ccc1NS(=O)(=O)C(F)(F)F  cat flea (Ctenocephalides felis)  mortality at 1.26 µg/cm2, 1.26 µg/cm2         %          94
 5  CCC/C(=N\OCc1ccc(C(F)(F)F)cc1C(F)(F)F)c1cc(Cl)ccc1NS(=O)(=O)C(F)(F)F  cat flea (Ctenocephalides felis)  mortality at 1.26 µg/cm2, 1.26 µg/cm2         %          79
 6  CC/C(=N\OCc1ccccc1C(F)(F)F)c1cc(Cl)ccc1NS(=O)(=O)C(F)(F)F  cat flea (Ctenocephalides felis)  mortality at 1.26 µg/cm2, 1.26 µg/cm2         %          69
 7  C/C(=N\OCc1ccc(C(F)(F)F)cc1C(F)(F)F)c1cc(F)ccc1NS(=O)(=O)C(F)(F)F  cat flea (Ctenocephalides felis)  mortality at 1.26 µg/cm2, 1.26 µg/cm2         %           3
 8  C/C(=N\OCc1ccc(C(F)(F)F)cc1C(F)(F)F)c1cc(Cl)ccc1NS(=O)(=O)C(F)(F)F  cat flea (Ctenocephalides felis)  mortality at 1.26 µg/cm2, 1.26 µg/cm2         %           2
 9  CC/C(=N\OCc1ccc(Cl)cc1)c1cc(Cl)ccc1NS(=O)(=O)C(F)(F)F  cat flea (Ctenocephalides felis)  mortality at 1.26 µg/cm2, 1.26 µg/cm2         %          87
10  C/C(=N\OC(C)c1ccc(Cl)cc1)c1cc(Cl)ccc1NS(=O)(=O)C(F)(F)F (centres unmarked)  cat flea (Ctenocephalides felis)  mortality at 1.26 µg/cm2, 1.26 µg/cm2         %          11
